Let's look at some log10 Ki data for Adenosine receptor A2a (Homo sapiens) that I collected from the literature.
# values: log10(Ki), units nM

Guide cases for log10 Ki, answers given:
# SMILES DATA, SYSTEM, log10 Ki
data = [
    ("COC(=O)c1cnn(-c2nc(NC(C3CC3)C3CC3)c3ncn([C@H]4[C@H](O)[C@H](O)[C@@H]5C[C@@H]54)c3n2)c1", "Adenosine receptor A2a (Homo sapiens)", 3.61),
    ("Nc1cccc2c1nc(NC(=O)C(c1ccccc1)c1ccccc1)c1nn(-c3ccccc3)c(=O)n12", "Adenosine receptor A2a (Homo sapiens)", 2.80),
    ("CCOC(=O)c1cnc(NC(c2ccccc2)c2ccccc2)n2nc(-c3ccco3)nc12", "Adenosine receptor A2a (Homo sapiens)", 2.59),
    ("CC(C)n1cnc(CCNc2nc(NCC(c3ccccc3)c3ccccc3)c3ncn([C@@H]4C[C@H](NC(=O)C5CC5)[C@@H](O)[C@H]4O)c3n2)c1", "Adenosine receptor A2a (Homo sapiens)", 1.20),
]

# next compound below
Record summary for `CNC(=O)c1cnc(N)n2nc(-c3ccco3)nc12` : reported log10 Ki = 1.18
